# system_name: Cdc42 (Homo sapiens, UniProt P60953)
# Sequence (P60953 whole entry, species assumed): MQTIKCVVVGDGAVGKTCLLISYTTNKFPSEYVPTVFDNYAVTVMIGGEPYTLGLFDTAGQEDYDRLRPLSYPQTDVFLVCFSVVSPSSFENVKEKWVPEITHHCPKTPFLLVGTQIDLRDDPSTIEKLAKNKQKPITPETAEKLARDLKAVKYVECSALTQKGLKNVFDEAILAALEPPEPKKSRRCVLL
# method_summary: Surface plasmon resonance, purified Cdc42 immobilized on CM5 chips
# Format: binding
# applied_conditions: SPR
measurement_label: Kd (µM)
Report the figure in µM without appending any unit label.

State its Kd for this compound: Cc1cc(C)nc(NS(=O)(=O)c2ccc(NC(=S)NC(=O)COc3ccc(Br)cc3Cl)cc2)n1
11.4
